Assignment: determine reported logP for the given compounds.

compound	measured attribute	readout value
CC(C)N(C(=O)COc1nnc(C(F)(F)F)s1)c1ccc(F)cc1	logP	3.19
Oc1ccc(Oc2ccccc2)cc1	logP	3.92
CCCN(CCC)c1c([N+](=O)[O-])cc(C(F)(F)F)cc1[N+](=O)[O-]	logP	4.98

Look up logP for the entries below, preserving their order.
1. CC(C)C(C(=O)OC(C#N)c1cccc(Oc2ccccc2)c1)c1ccc(Cl)cc1 (stereo not drawn)
2. CO/C=C(/C(=O)OC)c1ccccc1Oc1cc(Oc2ccccc2C#N)ncn1
3. CCCCOCCOCCOCc1cc2c(cc1CCC)OCO2
4. COP(=S)(OC)SCC(=O)N(c1ccc(Cl)cc1)C(C)C
5. N#Cc1c[nH]cc1-c1cccc(Cl)c1Cl

1: 5.71; 2: 2.97; 3: 4.39; 4: 3.8; 5: 3.78

* * *

Assignment: determine reported logP for the given molecules.
Give bare numbers.

test smiles	logP
CC1=C(C(=O)Nc2ccccc2)S(=O)(=O)CCO1	1.13
C=CCc1ccccc1OC[C@@H](O)CNC(C)C	2.63
CON=C1C[C@]2(C[C@@H]3C[C@@H](C/C=C(\C)C[C@@H](C)C=C/C=C4\CO[C@@H]5[C@H](O)C(C)=C[C@@H](C(=O)O3)[C@]45O)O2)O[C@H](/C(C)=C/C(C)C)[C@H]1C	4.99
CN(C)CCC=C1c2ccccc2COc2ccccc21	3.75
CCOCn1c(-c2ccc(Cl)cc2)c(C#N)c(Br)c1C(F)(F)F	4.61

Look up logP for the entries below, preserving their order.
1. COc1ccc(-c2ccccc2)cc1NNC(=O)OC(C)C
2. CC(C)(C)c1ccc(CCOc2ncnc3ccccc23)cc1
3. C[C@H]1O[C@@H](O[C@H]2[C@@H](O)C[C@H](O[C@H]3[C@@H](O)C[C@H](O[C@H]4CC[C@@]5(C)[C@H](CC[C@@H]6[C@@H]5CC[C@]5(C)[C@@H](C7=CC(=O)OC7)CC[C@]65O)C4)O[C@@H]3C)O[C@@H]2C)C[C@H](O)[C@@H]1O

1. 3.8
2. 4.91
3. 3.42
